Data provenance is patent US20210115144A1.

# Experimental system: T1, human HHLA2 expressed on transfected cells (300.19 mouse pre-B cells; CHO cells) (human, UniProt Q9UM44 23-414)
# T1 construct: also called B7-H7; B7H7
# T1 sequence: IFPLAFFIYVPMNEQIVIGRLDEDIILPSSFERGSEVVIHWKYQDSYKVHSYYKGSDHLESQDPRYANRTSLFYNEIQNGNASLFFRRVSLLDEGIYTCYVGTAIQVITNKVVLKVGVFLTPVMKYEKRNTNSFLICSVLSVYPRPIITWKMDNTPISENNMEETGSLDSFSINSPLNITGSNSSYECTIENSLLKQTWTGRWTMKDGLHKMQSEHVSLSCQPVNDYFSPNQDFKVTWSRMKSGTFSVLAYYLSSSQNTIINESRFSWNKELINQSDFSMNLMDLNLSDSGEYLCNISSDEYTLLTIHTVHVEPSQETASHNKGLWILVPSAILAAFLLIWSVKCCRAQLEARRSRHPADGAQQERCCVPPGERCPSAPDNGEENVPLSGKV
# Experiment notes: flow cytometry, mAb on HHLA2-transfected 300.19 mouse pre-B cells

# Binder, EC50 / µg/mL
rows = [
    ("anti-HHLA2 monoclonal antibody 2C4 (antibody, IgG1, V domains shown, also called 499.5.2C4.E6.6.8.1; MHC2562) VH: EVHLQQSGPELEKPGVSVKISCKASGFSFTDYNMNWVKQSSGKSLEWIGNIDPYYGRINYNQKFKGKATLSVDKSSSTAYMHLKSLTSEDSAVYYCATGAYTSGYSWFAYWGQGTLVTVSA VL: ENVLTQSPGIMAASLGEKVTMTCSASSSVSSSYLHWYQQRSGASPKPLIHRTSNLASGVPARFSGSGSGTSYSLTISSVEAEDDATYYCQQWSGYPFTFGSGTKLEIK", 0.24),
    ("anti-HHLA2 monoclonal antibody 4D1 (antibody, IgG1, V domains shown, also called 499.5.4D1.5.16; MHC2563) VH: QVQLQQSGAELVRPGVSVKISCKGSGYTFTDYAMHWVKQSHAKSLEWIGSISTYYGDTNYNQKFKGKATMTVDKSSSTAYMELARLTSEDSAIYYCARGNYDDWYFNVWGAGTTVTVSS VL: DIQMTQSPSSLSASLGERVSLTCRASQDISGYLSWLQQKPDGTIKRLIYSTSTLDSGVPKRFSGSRSGSDYSLTISSLESEDFADYYCLQYASSPYTFGGGAKLEIK", 0.44),
    ("anti-HHLA2 monoclonal antibody 2G2 (antibody, IgG1, V domains shown, also called 499.5.2G2.13.3.10; MHC2561) VH: EVMLVESGGGLVKPGGSLKLSCAVSGLTFSSYAMSWVRQTPEKRLEWVATISSGGSHTYYPDSVKGRFIISRDNAKNTLYLQMNSLRSEDTAMYYCTRLGRAFDYWGQGTTLTVSS VL: DIVMTQSHKFMSTSVGDRVSITCKASQDVSTAVAWYQQKPGQSPKVLIYWASTRHTGVPDRFTGSGSGTDFTLTISSVQAEDLALYYCQQDYSTPWTFGGGTKLEIK", 0.21),
    ("anti-HHLA2 monoclonal antibody 6F10 (antibody, IgG1, V domains shown, also called 499.5.6F10.A4.10; MHC2557) VH: QVHLQQSAAELARPGASVKMSCKASGYTFTTYTMHWVKQRPGQGLEWIGHINPSSGYTDYNQKFKDKTTLTADKSSSTAYMQLNSLTSEDSAVYYCARHPWDSDYWGQGTTLTVSS VL: DIQMTQSPASLSASVGETVTITCRASENIDSYLAWYQQKQGRSPQLLVYAATNLADGVPSRFSGSGSGTQFSLQINRLQSEDVARYYCQHYYITPFTFGSGTKLEIA", 0.25),
    ("anti-HHLA2 monoclonal antibody 1C8 (antibody, IgG2a, V domains shown, also called 499.5.1C8.9.12.2; MHC2564) VH: EVQLQQSGAELVQPGASVKLSCTASGFNIKDTYMHWVKQRPEQGLEWIGRIDPANGKTIFDPKFQVKATITADTSSNTVYLHLSSLTSEDTAIYYCAWLLPYYFDYWGQGTTLTVSS VL: EIVLTQSPAVMAASPGEKVTITCSVSSSISSSNLHWYQQKSGTSPKLWIYGTSNLASGVPVRFSGSGSGTSYSLTISSMEAEDAATYYCQKWSHYPLTFGAGTKLELK", 0.63),
    ("anti-HHLA2 monoclonal antibody 6D10 (antibody, IgG1, V domains shown, also called 6DI0; 499.5.6D10.11.11.7) VH: EVQLVETGGGLVQPKGSLKLSCAASGFTFNTNVMNWVRQAPGKGLEWVARIRTKTNNYATYYADSVKDRFTIFRDDSQSILYLQMNNLKTEDTAMYYCVGAMDYWGQGTSVTVSS VL: DIVLTQSPASLAVSLGQRATISCRASESVDNYGISFMHWYQQKPGQPPKLLIYRASNLKSGIPARFSGSGSRTDFTLTINPVETGDVATYYCQQSSKDPPTFGTGTKLELK", 22.5),
]
